These entries and their values trace back to PubChem BioAssay AID1259422.

Record form. Attribute: inhibition. Fill in for each entry.
method summary: TEAD-YAP interaction inhibition, primary screen, TEAD-YAP interaction inhibitor project, luminescence, HEK-TIYL cells (AID 1259422);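 note: 0% = median of test compound wells and 100% = reference inhibitor wells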
condition details: TEAD-Gal4/YAP UAS-luciferase luminescence, at 9.12 µM, stronger effect = higher value
In all, about 640,000 compounds went through this assay and about 9,300 (1.5%) were called active. Shown is part of a subset that was picked to be rich in actives.
One number for each entry, in %.

Please state inhibition for every compound in the list that follows.
1. CC1=CC(=Cc2sc3ccccc3[n+]2C)C=C(C)O1
2. CN(C)P(=O)(c1cccc(C(=O)O)c1)N(C)C
3. c1ccc2c(CCNC3CC4CCC3C4)c[nH]c2c1 (stereo unspecified)
4. Cc1cc2c(cc1Br)NC(=O)C2(c1c(O)n(C)c(=O)n(C)c1=O)C(C#N)C#N (stereo unspecified)
5. O=C(Cc1ccc(F)cc1)N(Cc1ccco1)C1CCN(Cc2ccncc2)CC1
6. N#Cc1ccc(NC(=O)COC(=O)CCC2CCCC2)cc1Cl
7. Cc1ccc2nc(NC(=O)c3c(O)c4c(n(Cc5ccco5)c3=O)CCCC4)sc2c1

85.8
-4.89
-1.36
-14.6
-7.86
0.25
-4.37

====

Record form. Attribute: inhibition. Fill in for each entry.
method summary: TEAD-YAP interaction inhibition, primary screen, TEAD-YAP interaction inhibitor project, luminescence, HEK-TIYL cells (AID 1259422);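 note: 0% = median of test compound wells and 100% = reference inhibitor wells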
condition details: TEAD-Gal4/YAP UAS-luciferase luminescence, at 9.12 µM, stronger effect = higher value
About 9,300 (1.5%) of roughly 640,000 compounds were called active. Many of the other results were omitted from the sample, so actives are more common in it than they were.
Numbers only, in %.

molecule=COc1cc(CN2CCN(C)CC2)ccc1O measurement_units=% measurement=4.62
molecule=Cc1[nH]c2c(F)cccc2c1CCN measurement_units=% measurement=1.82
molecule="CCOc1ccc(C(Nc2ccccc2)P2(=S)OCC(C)(C)CO2)cc1 (centres undefined)" measurement_units=% measurement=5.04

Consider the molecule CN[C@@H]1C[C@H]2O[C@@](C)([C@@H]1OC)n1c3ccccc3c3c4c(c5c6ccccc6n2c5c31)C(=O)NC4 and give its measured inhibition.
102

====

method summary: TEAD-YAP interaction inhibition, primary screen, TEAD-YAP interaction inhibitor project, luminescence, HEK-TIYL cells (AID 1259422);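 note: 0% = median of test compound wells and 100% = reference inhibitor wells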
condition details: TEAD-Gal4/YAP UAS-luciferase luminescence, at 9.12 µM, stronger effect = higher value
In all, about 640,000 compounds went through this assay and about 9,300 (1.5%) were called active. The entries come from a sample that favours actives as a whole.
Record form. Attribute: inhibition. Fill in for each entry.
Numbers only, in %.

Here is how some compounds turned out for inhibition.
compound=CC(=O)Nc1cc([N+](=O)[O-])ccc1N1CCN(C)CC1 measurement_kind=inhibition measurement=-2.87
compound=COc1ccc2c(c1)c(C(=O)N1CCN(C)CC1)c(C)n2C measurement_kind=inhibition measurement=-6.79
compound=CCCCCCOc1ccc(C=C2C(=O)NC(=S)NC2=O)cc1 measurement_kind=inhibition measurement=13

Now look at this entry.
Consider the compound CCOC(=O)C1C2NC(=S)NC1(C)Oc1cc(OC)ccc12 (centres undefined) and give its measured inhibition.
0.95
